Can you tell me composite z-score for the items I'm about to list?
- experimental_system: Alpha-bungarotoxin (Bungarus multicinctus) (UniProt P60615)
- Sequence (P60615 whole entry, looked up): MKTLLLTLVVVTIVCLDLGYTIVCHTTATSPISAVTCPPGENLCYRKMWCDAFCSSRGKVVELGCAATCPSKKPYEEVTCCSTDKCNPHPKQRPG
- experimental_details: alpha-bungarotoxin binders on microarray, profiling panel, artefact control for SMM control protein annotation, biochemical, small-molecule microarray, Alexa647 label, 635/667 nm fluorescence (AID 1117)
- test_context: alpha-BTX-A647 binding fluorescence, higher = more signal
Give bare numbers.

Solved cases below.
Notebook entry, Alpha-bungarotoxin (Bungarus multicinctus) (UniProt P60615) assay: composite z-score of CCN(CC)c1ccc(N2CC=CC34O[C@@H]5C=CCOC(=O)[C@@H]5[C@H]3C(=O)N(C(C)CO)[C@@H]4C2=O)cc1 (some centres undefined) = ? 0.0517

And what about the compound "COCCOC(=O)N1C(=O)[C@@]2(c3cc(C#CCNC(N)=O)ccc31)[C@H](c1ccccc1OCCO)N1[C@H](c3ccccc3)[C@H](c3ccccc3)OC(=O)[C@H]1[C@@H]2C(=O)Nc1nc2ccccc2s1" ? 2.51

Now the same for "CC(C)C(=C=CC[C@H](O)c1ccc(OCCO)cc1)C[C@H](O)COCc1ccccc1" 1.07

Note, next up: "C=CC[C@]1(C(=O)N2CCCCC2)COC(c2ccc(OCCCO)cc2)=N1" -0.212

Lookup "CCOC(=O)C[C@H]1[C@H](OC(=O)c2ccc(-c3ccccc3)cc2)[C@@H](NC(=O)C2CCCCC2)c2cc(OCCCO)ccc2N1C(=O)c1ccc2ccccc2n1" 0.608

Proceed to "CC(C)CNC(=O)[C@@H]1c2ccccc2C(=O)N(Cc2ccc(OC(F)(F)F)cc2)[C@H]1c1ccc(CO)cc1" 1.74

Please answer likewise for "COC(=O)C(CC#Cc1ccc2c(c1)[C@]1(C(=O)N2)[C@H](C(=O)O)[C@H]2C(=O)O[C@H](c3ccccc3)[C@H](c3ccccc3)N2[C@@H]1c1ccc(OCCO)cc1)C(=O)OC" 3.51

For CC(C)N1CC=CC23O[C@@H]4/C=C\CCCOC(=O)C4[C@H]2C(=O)N(CCCO)[C@@H]3C1=O (some centres undefined) then? -2.18

// batch mode: one composite z-score value per listed entry
1. O=C1c2ccccc2[C@](Cc2ccccc2I)(C(=O)O)[C@H](c2ccc(CO)cc2)N1Cc1ccccc1Cl
2. COc1ccc(/C=C/C(=O)c2cccc(OCC(=O)OC(C)(C)C)c2)cc1
3. O=C(O)[C@H]1C[C@H]2C(=O)N[C@@H](Cc3ccccc3)C(=O)N2[C@H]1c1ccc(O)cc1

1: 2.29; 2: 0.45; 3: 0.824

Report composite z-score for each item below.
1. CO[C@H]1O[C@H](CO)[C@@H](OC(=O)Nc2ccccc2)[C@H](OC(=O)Nc2ccccc2-c2ccccc2)[C@@H]1OC(=O)Nc1ccccc1-c1ccccc1
2. CO[C@H]1O[C@H](CO)[C@@H](OC(=O)Nc2ccccc2)[C@H](OC(=O)Nc2ccc3c(c2)OCO3)[C@H]1OC(=O)Nc1ccc2c(c1)OCO2
3. CO[C@H]1O[C@H](CO)[C@@H](OC(=O)CCc2ccccc2)[C@@H]2OC(=O)[C@H](Cc3ccccc3)C/C=C/C[C@@H](Cc3ccccc3)C(=O)O[C@@H]12

[2.77, 0.485, -0.75]
